# reported polymerase ribozyme fitness (log ratio); entries follow
B1: TPR 5TU (parent)
chain: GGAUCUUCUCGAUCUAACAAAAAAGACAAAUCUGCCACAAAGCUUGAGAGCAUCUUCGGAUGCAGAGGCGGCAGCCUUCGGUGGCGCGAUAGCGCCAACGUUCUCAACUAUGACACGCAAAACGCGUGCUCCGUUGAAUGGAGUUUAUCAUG

Variants of: B1
Experiment: polymerase ribozyme fitness, log enrichment relative to wild type (log ratio); higher = more active; in vitro selection for triplet polymerase activity
Fewer inactive variants are shown than the library holds.
Answer with a number only.

// worked examples, polymerase ribozyme fitness (log ratio) included
>  <MUTANT_ID>
G74U

>  <VALUE>
-3.33

$$$$
>  <MUTANT_ID>
A12U A40U C85U U145C

>  <VALUE>
-1.21

$$$$
>  <MUTANT_ID>
C5G C132U U146G

>  <VALUE>
-3.69

$$$$

stdin: Give polymerase ribozyme fitness (log ratio) for the following variant: A17U G81A G84A
stdout: -0.321

stdin: Return polymerase ribozyme fitness (log ratio) for the following variant: G48A A106G
stdout: -1.77
